Data origin, for the record: patent US9096532B2

Give measured pIC50 for each item. Keep answers brief.
Sequence of the target: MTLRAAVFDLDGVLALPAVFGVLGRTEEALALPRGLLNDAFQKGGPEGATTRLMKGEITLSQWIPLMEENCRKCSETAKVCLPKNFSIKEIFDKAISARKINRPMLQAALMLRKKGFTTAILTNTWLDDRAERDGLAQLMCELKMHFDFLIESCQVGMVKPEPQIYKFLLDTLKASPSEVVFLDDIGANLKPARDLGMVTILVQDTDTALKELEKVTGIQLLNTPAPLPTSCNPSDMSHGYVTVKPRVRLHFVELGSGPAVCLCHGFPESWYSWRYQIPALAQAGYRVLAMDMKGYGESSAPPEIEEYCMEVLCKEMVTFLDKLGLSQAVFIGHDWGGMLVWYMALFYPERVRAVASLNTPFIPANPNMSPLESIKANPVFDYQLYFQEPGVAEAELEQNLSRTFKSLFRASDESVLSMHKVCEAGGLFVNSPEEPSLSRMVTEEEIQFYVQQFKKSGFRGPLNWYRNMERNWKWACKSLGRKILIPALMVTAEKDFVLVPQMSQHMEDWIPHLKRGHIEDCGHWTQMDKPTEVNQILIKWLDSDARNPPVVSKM
pIC50: −log10 of the molar value.

compound	test-result
Cc1cccc(C)c1NC(=O)NCCCc1cc(-c2ccccc2)n(-c2ccc(S(N)(=O)=O)cc2)n1 [Compound 21d]	5.81
CS(=O)(=O)c1ccc(C2=C(c3ccccc3)C(=O)OC2)cc1 [Rofecoxib, rofecoxib, reference compound]	< 5.00

--- query ---
(Q) Please supply the value of reported pIC50 for the item COc1ccc2c(c1)c(CC(=O)O)c(C)n2C(=O)c1ccc(Cl)cc1 [Indomethacin, reference compound]
(A) < 5.00

====

assay: Pharmacokinetics in rats by oral administration; conditions: rats, oral administration at 1 mg/kg (n = 4), blood
readout: Cmax

Could you tell me Cmax for each of these molecules? They are listed below.
1. NS(=O)(=O)c1ccc(-n2nc(CCCNC(=O)Nc3ccc(OC(F)(F)F)cc3)cc2-c2ccccc2)cc1 [Compound 21j]
2. NS(=O)(=O)c1ccc(-n2nc(CCCNC(=O)Nc3ccc(C(F)(F)F)cc3)cc2-c2ccccc2)cc1 [Compound 21i]

(A)
180 nM
415 nM

====

For each entry below, report its Tmax value.
assay: Pharmacokinetics in mice by oral cassette dosing; type: in vivo; details: oral cassette dosing at 5 mg/kg, blood
Give bare numbers, in min.

Worked cases, Tmax given:
molecule	Tmax (min)
NS(=O)(=O)c1ccc(-n2nc(CCCNC(=O)NC34CC5CC(CC(C5)C3)C4)cc2-c2ccccc2)cc1 [Compound 21f]	30
NS(=O)(=O)c1ccc(-n2nc(CCCNC(=O)Nc3ccc(C(F)(F)F)cc3)cc2-c2ccccc2)cc1 [Compound 21i]	48
NS(=O)(=O)c1ccc(-n2nc(CCCNC(=O)Nc3cccc(C(F)(F)F)c3)cc2-c2ccccc2)cc1 [Compound 21b]	30
NS(=O)(=O)c1ccc(-n2nc(CCCNC(=O)Nc3ccc(OC(F)(F)F)cc3)cc2-c2ccccc2)cc1 [Compound 21j]	48
NS(=O)(=O)c1ccc(-n2nc(CCCNC(=O)NC3CCCCCC3)cc2-c2ccccc2)cc1 [Compound 21g]	30
NS(=O)(=O)c1ccc(-n2nc(CCCNC(=O)Nc3ccccc3)cc2-c2ccccc2)cc1 [Compound 21e]	30

In the following, a different molecule is considered.
(Q) Indicate its recorded Tmax; the molecule in question is NS(=O)(=O)c1ccc(-n2nc(CCCNC(=O)Nc3ccc(Cl)cc3)cc2-c2ccccc2)cc1 [Compound 21h]
(A) 48
